Every entry's value here was drawn from patent US20050165053A1.

System: ZR-75-1
Assay: Caspase cascade activation assay in ZR-75-1 cells (N-(Ac-DEVD)-N'-ethoxycarbonyl-R110 fluorogenic substrate)
Assay type: cell-based, Human
Details: Homo sapiens; ZR-75-1, 24 h incubation; read-out: Caspase potency EC50
Procedure: Human breast cancer cell lines T-47D and ZR-75-1 were grown according to media component mixtures designated by American Type Culture Collection+10% FCS (Life Technologies Division of Invitrogen Corporation), in a 5% CO2-95% humidity incubator at 37° C. […] After the 3 h incubation, the samples were read for fluorescence as above (T=3 h). The Relative Fluorescence Unit values (RFU) were used to calculate the sample readings as follows: RFU(T=3h)−Control RFU(T=0)=Net RFU(T=3h) […]
Please respond with reported pEC50 for every item in the list.
As a rule, pEC50 stands for the negative log10 of the concentration, concentration in M.

Dear colleague, I am looking for the recorded pEC50 of the following compound: O=C(C=Cc1cccc([N+](=O)[O-])c1)c1c(-c2ccccc2)c2cc(Br)ccc2[nH]c1=O [Compound B]
5.74

// lookup pEC50 for O=C(C=Cc1ccc([N+](=O)[O-])cc1)c1c(-c2ccccc2)c2cc(Br)ccc2[nH]c1=O [Compound A]
5.48

----------
Tested on: T-47D
Experiment: Caspase cascade activation assay in T-47D cells (N-(Ac-DEVD)-N'-ethoxycarbonyl-R110 fluorogenic substrate)
Type: cell-based, Human
Conditions: Homo sapiens, T47D, 24 h incubation, read-out: Caspase potency EC50
For each of the molecules below, state its EC50.
Number in nM, nothing else.

Give the measured EC50 of `O=C(C=Cc1cccc([N+](=O)[O-])c1)c1c(-c2ccccc2)c2cc(Br)ccc2[nH]c1=O` .
849

Request the reported EC50 associated with `O=C(C=Cc1ccc([N+](=O)[O-])cc1)c1c(-c2ccccc2)c2cc(Br)ccc2[nH]c1=O`
1900
